Hi there, I'd appreciate the recorded pIC50 for every entry that follows.
- tested-target: recombinant full-length human hydroxyacid oxidase 1 (HAO1), the equivalents of hGOX (Homo sapiens (Human))
- Sequence (Q9UJM8 whole entry): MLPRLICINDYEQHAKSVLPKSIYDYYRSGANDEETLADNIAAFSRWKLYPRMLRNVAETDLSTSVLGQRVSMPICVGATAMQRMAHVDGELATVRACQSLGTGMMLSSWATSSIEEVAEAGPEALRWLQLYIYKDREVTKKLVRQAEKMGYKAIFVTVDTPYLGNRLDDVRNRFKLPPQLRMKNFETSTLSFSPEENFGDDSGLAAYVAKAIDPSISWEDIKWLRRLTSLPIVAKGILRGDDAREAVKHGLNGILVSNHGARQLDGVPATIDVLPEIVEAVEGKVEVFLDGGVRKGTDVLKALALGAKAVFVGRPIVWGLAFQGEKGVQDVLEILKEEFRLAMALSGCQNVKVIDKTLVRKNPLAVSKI
- test-method-notes: In-vitro human glycolate oxidase (hGOX) assay (Amplex red fluorescence)
- condition-notes: 6 nM recombinant human GO, 85 μM glycolate, 10 min preincubation
Please report pIC50 as the negative decimal logarithm of the molar concentration, giving only the number.

Ask: Please report the measured pIC50 for O=C(O)c1nn[nH]c1Oc1cccc(C#Cc2cccnn2)c1 [Example 340]
Result: 8.52

Ask: Give a short answer stating reported pIC50 for Cn1nccc1C#Cc1cccc(Oc2[nH]nnc2C(=O)O)c1 [Example 322] .
Result: 8.40

Ask: Assign pIC50 to the following record: COc1ccc(C#Cc2cccc(Oc3[nH]nnc3C(=O)O)c2)cn1 [Example 284]
Result: 8.30

Ask: Please supply the value of reported pIC50 for the item COc1ccc(C#Cc2ccc(Oc3[nH]nnc3C(=O)O)cc2)cn1 [Example 282]
Result: 8.52

Ask: Return pIC50 (reported value) for this compound: CS(=O)(=O)c1cccc(C#Cc2cc(Oc3[nH]nnc3C(=O)O)ccc2F)c1 [Example 267]
Result: 8.70

Ask: Specify reported pIC50 for the compound shown: CCCC#Cc1ccc(Oc2[nH]nnc2C(=O)O)cc1 [Example 299]
Result: 7.82

Ask: State its pIC50 for this compound: O=C(O)c1nn[nH]c1Oc1ccc(C#Cc2ncc[nH]2)cc1 [Example 331]
Result: 7.70
